# tgt: Delta-type opioid receptor (Homo sapiens, UniProt P41143)
# Sequence (P41143 whole entry): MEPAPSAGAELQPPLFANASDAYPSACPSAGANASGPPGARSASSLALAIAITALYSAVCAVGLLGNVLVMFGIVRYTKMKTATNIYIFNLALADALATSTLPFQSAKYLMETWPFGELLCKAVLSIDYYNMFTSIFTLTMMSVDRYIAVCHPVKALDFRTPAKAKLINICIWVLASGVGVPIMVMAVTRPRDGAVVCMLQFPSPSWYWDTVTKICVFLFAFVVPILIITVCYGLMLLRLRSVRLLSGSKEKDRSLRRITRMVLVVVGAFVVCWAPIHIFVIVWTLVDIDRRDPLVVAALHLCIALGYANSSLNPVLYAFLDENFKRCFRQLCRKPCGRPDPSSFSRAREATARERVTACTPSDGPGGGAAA
# procedure_text: Inhibition of delta opioid receptor (unknown origin) in presence of DAMGO by [35S]-GTPgammaS binding assay
# Format: functional
reported_endpoint: EC50

Lab note: record EC50 of "CC[C@@H]1CN2CC[C@]3(Nc4cccc(-c5ccccc5)c4C3=O)[C@@H]2C[C@@H]1/C(=C\OC)C(=O)OC" tested on Delta-type opioid receptor (Homo sapiens, UniProt P41143).
1.4 nM

Lab note: record EC50 of "CC[C@@H]1CN2CC[C@]3(Nc4cccc(OC)c4C3=O)[C@@H]2C[C@@H]1/C(=C\OC)C(=O)OC" tested on Delta-type opioid receptor (Homo sapiens, UniProt P41143).
1.7 nM

----------
# tgt: UniProtKB P35372
# Sequence (P35372 whole entry): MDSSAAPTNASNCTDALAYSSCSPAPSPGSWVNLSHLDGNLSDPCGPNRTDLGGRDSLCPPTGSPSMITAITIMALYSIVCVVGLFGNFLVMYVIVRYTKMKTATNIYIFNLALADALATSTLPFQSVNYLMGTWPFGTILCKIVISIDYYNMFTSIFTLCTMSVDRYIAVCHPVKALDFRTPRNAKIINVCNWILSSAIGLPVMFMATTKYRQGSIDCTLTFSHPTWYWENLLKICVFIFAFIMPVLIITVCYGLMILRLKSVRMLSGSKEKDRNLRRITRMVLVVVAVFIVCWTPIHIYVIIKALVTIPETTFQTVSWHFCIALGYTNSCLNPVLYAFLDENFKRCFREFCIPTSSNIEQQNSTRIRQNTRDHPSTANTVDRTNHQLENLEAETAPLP
# procedure_text: Inhibition of mu opioid receptor (unknown origin) expressed in human […] cells by [35S]-GTPgammaS binding assay
# Type: functional, cell-based
reported_endpoint: EC50 (nM)
Supply the numeric figure in nM, leaving out any unit text.

Lab note: record EC50 of "CCOC(=O)C1(CCc2ccccc2)CCN(Cc2ccc(NC(C)=O)cc2)CC1" tested on UniProtKB P35372.
54

----------
# tgt: Mitogen-activated protein kinase 3 (Homo sapiens, UniProt P27361)
# Sequence (P27361 whole entry): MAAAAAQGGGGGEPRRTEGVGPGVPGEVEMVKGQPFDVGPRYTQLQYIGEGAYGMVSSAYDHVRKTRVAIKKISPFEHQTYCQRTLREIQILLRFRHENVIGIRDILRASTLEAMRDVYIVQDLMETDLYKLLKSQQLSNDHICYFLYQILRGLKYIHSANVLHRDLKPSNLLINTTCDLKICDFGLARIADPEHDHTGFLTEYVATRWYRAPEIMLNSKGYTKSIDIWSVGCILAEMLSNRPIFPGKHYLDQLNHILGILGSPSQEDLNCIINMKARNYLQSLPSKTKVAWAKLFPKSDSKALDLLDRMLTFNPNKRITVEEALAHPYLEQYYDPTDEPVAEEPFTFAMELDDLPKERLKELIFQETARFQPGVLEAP
# procedure_text: Inhibition of ERK1 phosphorylation (unknown origin)
reported_endpoint: EC50
Quote the value and follow it with the unit of measurement.

Entry "CN(C(=O)/C=C/c1ccoc1)[C@@H]1CC[C@@]2(O)[C@H]3Cc4ccc(O)c5c4[C@@]2(CCN3CC2CC2)[C@H]1O5" needs its EC50 filled in; supply it.
0.55 nM

----------
I'd appreciate it if you could supply EC50 values for the items below.
# tgt: Delta-type opioid receptor (Homo sapiens, UniProt P41143)
# procedure_text: Inhibition of full length delta opioid receptor (unknown origin) assessed as increase in beta arrestin 1 recruitment
Non-standard residues stand in square brackets, D forms with d. Residues, ends and D or L forms follow the SMILES beside them. ξ: configuration not given here. ξP = O=C(O)C1CCCN1
Supply the numeric figure in µM, leaving out any unit text.

Entry CC(C)C[C@H](NC(=O)C1CCCN1C(=O)[C@@H](N)Cc1ccc(O)cc1)C(=O)N[C@@H](CC(=O)O)C(=O)N[C@@H](CC(C)C)C(=O)N[C@@H](Cc1ccccc1)C(=O)O (some centres not stated) (H-Y[ξP]LDLF-OH) needs its EC50 filled in; supply it.
7.94

Entry CC(C)C[C@H](NC(=O)[C@H](CC(=O)O)NC(=O)[C@H](CC(C)C)NC(=O)C1CCCN1C(=O)[C@@H](N)Cc1ccc(O)cc1)C(=O)O (some centres not stated) (H-Y[ξP]LDL-OH) needs its EC50 filled in; supply it.
79.4

----------
# tgt: Kappa-type opioid receptor (Homo sapiens, UniProt P41145)
# Sequence (P41145 whole entry): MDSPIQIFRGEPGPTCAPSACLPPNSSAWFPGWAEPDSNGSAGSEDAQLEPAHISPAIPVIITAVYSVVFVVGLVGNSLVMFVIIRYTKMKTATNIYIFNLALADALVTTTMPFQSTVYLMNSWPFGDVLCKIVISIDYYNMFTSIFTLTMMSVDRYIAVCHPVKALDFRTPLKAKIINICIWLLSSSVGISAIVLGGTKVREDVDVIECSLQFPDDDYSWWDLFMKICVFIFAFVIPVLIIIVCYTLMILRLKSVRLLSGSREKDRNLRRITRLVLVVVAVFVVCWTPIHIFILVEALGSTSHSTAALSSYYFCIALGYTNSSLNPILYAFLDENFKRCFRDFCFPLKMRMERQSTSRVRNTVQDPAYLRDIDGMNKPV
# procedure_text: Inhibition of kappa opioid receptor (unknown origin) in presence of DAMGO by [35S]-GTPgammaS binding assay
# Format: functional
I'd appreciate it if you could supply pEC50 values for the items below.
In simple prose, pEC50 is minus the logarithm base ten of a concentration in moles per litre.

Entry "CC[C@@H]1CN2CC[C@]3(Nc4cccc(-c5ccccc5)c4C3=O)[C@@H]2C[C@@H]1/C(=C\OC)C(=O)OC" needs its pEC50 filled in; supply it.
8.85

Entry "CC[C@@H]1CN2CC[C@]3(Nc4cccc(OC)c4C3=O)[C@@H]2C[C@@H]1/C(=C\OC)C(=O)OC" needs its pEC50 filled in; supply it.
8.77

----------
I'd appreciate it if you could supply EC50 values for the items below.
# tgt: Delta-type opioid receptor (Homo sapiens, UniProt P41143)
# procedure_text: Inhibition of full length delta opioid receptor (unknown origin) assessed as increase in beta arrestin 2 recruitment
Non-standard residues stand in square brackets, D forms with d. Residues, ends and D or L forms follow the SMILES beside them. ξ: configuration not given here. ξP = O=C(O)C1CCCN1
Supply the numeric figure in µM, leaving out any unit text.

Entry CC(C)C[C@H](NC(=O)[C@H](CC(=O)O)NC(=O)[C@H](CC(C)C)NC(=O)C1CCCN1C(=O)[C@@H](N)Cc1ccc(O)cc1)C(=O)O (some centres not stated) (H-Y[ξP]LDL-OH) needs its EC50 filled in; supply it.
79.4

Entry CC(C)C[C@H](NC(=O)C1CCCN1C(=O)[C@@H](N)Cc1ccc(O)cc1)C(=O)N[C@@H](CC(=O)O)C(=O)N[C@@H](CC(C)C)C(=O)N[C@@H](Cc1ccccc1)C(=O)O (some centres not stated) (H-Y[ξP]LDLF-OH) needs its EC50 filled in; supply it.
7.94

----------
Assay read-out Ki; system under study: UniProt P97266.
Quote the value and follow it with the unit of measurement.

Entry "CC[C@@H]1CN2CCc3c([nH]c4cccc(OC)c34)[C@@H]2C[C@@H]1/C(=C\OC)C(=O)OC" needs its Ki filled in; supply it.
13 nM

Entry "CC[C@@H]1CN2CC[C@@]3(O)C(=Nc4cccc(OC)c43)[C@@H]2C[C@@H]1/C(=C\OC)C(=O)OC" needs its Ki filled in; supply it.
7.2 nM

----------
I'd appreciate it if you could supply pEC50 values for the items below.
# tgt: Kappa-type opioid receptor (Homo sapiens, UniProt P41145)
# procedure_text: Inhibition of kappa opioid receptor (unknown origin) in presence of DPDPE by [35S]-GTPgammaS binding assay
# Type: functional
In simple prose, pEC50 is minus the logarithm base ten of a concentration in moles per litre.

Entry "CC[C@@H]1CN2CC[C@]3(Nc4cccc(-c5ccccc5)c4C3=O)[C@@H]2C[C@@H]1/C(=C\OC)C(=O)OC" needs its pEC50 filled in; supply it.
8.85

Entry "CC[C@@H]1CN2CC[C@]3(Nc4cccc(OC)c4C3=O)[C@@H]2C[C@@H]1/C(=C\OC)C(=O)OC" needs its pEC50 filled in; supply it.
8.77

----------
# tgt: Kappa-type opioid receptor (Homo sapiens)
# procedure_text: Inhibition of kappa opioid receptor (unknown origin) in presence of DPDPE by [35S]-GTPgammaS binding assay
# Format: functional
reported_endpoint: pIC50
In simple prose, pIC50 is minus the logarithm base ten of a concentration in moles per litre.

Entry "CC[C@@H]1CN2CC[C@]3(Nc4cccc(OC)c4C3=O)[C@@H]2C[C@@H]1/C(=C\OC)C(=O)OC" needs its pIC50 filled in; supply it.
6.88

----------
# tgt: Mu-type opioid receptor (Cavia porcellus, UniProt P97266)
# Sequence (P97266 whole entry): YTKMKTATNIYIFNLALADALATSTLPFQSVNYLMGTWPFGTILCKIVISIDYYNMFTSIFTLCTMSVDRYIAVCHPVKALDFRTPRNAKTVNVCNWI
# procedure_text: Agonist activity at mu opioid receptor in guinea pig brain membranes by [35S]-GTPgammaS binding assay
reported_endpoint: EC50 (nM)
Supply the numeric figure in nM, leaving out any unit text.

Entry "CC[C@@H]1CN2CC[C@@]3(O)C(=Nc4cccc(OC)c43)[C@@H]2C[C@@H]1/C(=C\OC)C(=O)OC" needs its EC50 filled in; supply it.
53

Entry "CC[C@@H]1CN2CCc3c([nH]c4cccc(OC)c34)[C@@H]2C[C@@H]1/C(=C\OC)C(=O)OC" needs its EC50 filled in; supply it.
230
